Test system: HBV-infected NTCP-HepG2 cells, secreted HBsAg
Assay: microbe, parasite or virus in culture
Assay type: cell-based, hepatitis B virus (genotype D, AD38-derived)
Settings: Hepatitis B virus, 120 h, secreted HBsAg in supernatant after 5 days; geometric mean of minimum four determinations; read-out: NTCP HBsAg EC50
pEC50: −log10 of the molar value.
Entries and their measured pEC50 follow.

compound: COCCCOc1cc2c(cc1Cl)-c1cc(=O)c(C(=O)O)cn1N1[C@@H]2CCC1(C)C (single isomer, unassigned)
pEC50: 8.77
//
compound: COCCCOc1cc2c(cc1C1CC1)-c1cc(=O)c(C(=O)O)cn1N1[C@@H]2COCC1(C)C
pEC50: 9.15
//
compound: COCCCOc1cc2c(cc1OC)-c1cc(=O)c(C(=O)O)cn1N1[C@@H]2CCCC1(C)C (single isomer, unassigned)
pEC50: 9.04
//
compound: COCc1cc2c(cc1C#CC(C)(C)OC)[C@H]1CCC(C)(C)N1n1cc(C(=O)O)c(=O)cc1-2
pEC50: 8.07
//
compound: COCCCOc1cc2c(cc1OC(F)(F)F)-c1cc(=O)c(C(=O)O)cn1N1[C@@H]2CCC1(C)C
pEC50: 8.96
//
compound: COCCCOc1cc2c(cc1C1CC1)-c1cc(=O)c(C(=O)O)cn1N1[C@@H]2CCC1(C)C
pEC50: 9.11
//
compound: COCCCOc1cc2c(cc1COC)-c1cc(=O)c(C(=O)O)cn1N1[C@@H]2COCC1(C)C
pEC50: 7.94
//
compound: COc1cc2c(cc1C#CC(C)(C)S(C)(=O)=O)[C@H]1CCC(C)(C)N1n1cc(C(=O)O)c(=O)cc1-2
pEC50: 8.02
